Test system: Pd_dinase
Test: Antimicrobial peptide digestion by Pd_dinase, LC-MS/MS
Format: in vitro ADME, Parabacteroidetes distasonis
Conditions: Parabacteroidetes distasonis, isolated protease Pd dinase (10 nM)
Ends that are not written are not given here.
Measurement type: metabolised at 20 h, 5 μM
Reply with the number and its unit after it.

The sequence listed as AIGGGLSSVGGGS [KAMP-13] shows metabolised at 20 h, 5 μM equal to 15.5%
